Read-out: Epidermal growth factor receptor (EGFR), EGFR (gene 1956)
Assay: BSK_hDFCGF_EGFR: BioMAP Diversity Plus: hDFCGF Assay for Epidermal growth factor receptor (EGFR) Biomarker Activity (AID 2283057)
Settings: primary human foreskin fibroblasts; actives raise or lower the signal
The source made the active and inactive calls. The calls were made as follows: active = hit-call score of the fitted dose curve at least 0.9, where 1 is the maximum; inactive = score below 0.9.
Possible outcomes: class 1 (active), class 0 (inactive)

{"columns": ["COMPOUND", "CATEGORY"],
 "data": [
  ["CNC(=O)ON=C(C)SC", "class 0"],
  ["CCCOc1nn(C(=O)NS(=O)(=O)c2ccccc2C(=O)OC)c(=O)n1C", "class 0"],
  ["COc1ccc(C(=CC(=O)N2CCOCC2)c2ccc(Cl)cc2)cc1OC", "class 0"],
  ["CCc1cccc(CC)c1N(COC)C(=O)CCl", "class 0"],
  ["C#CCC1=C(C)C(OC(=O)C2C(C=C(C)C)C2(C)C)CC1=O (centres undefined)", "class 0"],
  ["CC(C)[C@H](C(=O)O[C@H](C#N)c1cccc(Oc2ccccc2)c1)c1ccc(Cl)cc1", "class 0"],
  ["CNc1cnn(-c2cccc(C(F)(F)F)c2)c(=O)c1Cl", "class 0"],
  ["CCOP(=S)(OCC)SCCSCC", "class 0"],
  ["CCc1cccc(C)c1N(C(=O)CCl)C(C)COC (centres undefined)", "class 0"],
  ["CCOP(=S)(OCC)Oc1ccc2c(C)c(Cl)c(=O)oc2c1", "class 0"],
  ["CCC(=O)Nc1ccc(Cl)c(Cl)c1", "class 0"],
  ["Nc1c(Cl)cc([N+](=O)[O-])cc1Cl", "class 0"],
  ["COc1cc(OC)nc(Sc2cccc(Cl)c2C(=O)O)n1", "class 0"],
  ["CCOP(=O)(SC(C)CC)N1CCSC1=O (centres undefined)", "class 0"],
  ["CCOC(=O)CC(SP(=O)(OC)OC)C(=O)OCC (centres undefined)", "class 0"],
  ["CN1COCN(Cc2cnc(Cl)s2)C1=N[N+](=O)[O-]", "class 0"],
  ["C=C(C)[C@H]1Cc2c(ccc3c2O[C@@H]2COc4cc(OC)c(OC)cc4[C@@H]2C3=O)O1", "class 1"],
  ["C#CC(C)(C)NC(=O)c1cc(Cl)cc(Cl)c1", "class 0"],
  ["CC(Oc1cccc(Cl)c1)C(=O)O (centres undefined)", "class 0"],
  ["CCOP(=O)(NC(C)C)Oc1ccc(SC)c(C)c1 (centres undefined)", "class 0"],
  ["CSc1nnc(C(C)(C)C)c(=O)n1N", "class 0"],
  ["COP(=O)(OC)OC(Br)C(Cl)(Cl)Br (centres undefined)", "class 0"],
  ["Nc1nc(N)nc(NC2CC2)n1", "class 0"],
  ["COP(=O)(OC)C(O)C(Cl)(Cl)Cl (centres undefined)", "class 0"],
  ["COP(=O)(NC(C)=O)SC (centres undefined)", "class 0"],
  ["Cc1nn(-c2cc(NS(C)(=O)=O)c(Cl)cc2Cl)c(=O)n1C(F)F", "class 0"],
  ["CC1=NNC(=O)N(/N=C/c2cccnc2)C1", "class 0"],
  ["COc1cccc(C(=O)NN(C(=O)c2cc(C)cc(C)c2)C(C)(C)C)c1C", "class 0"],
  ["Cc1ccn2nc(S(=O)(=O)Nc3c(F)cccc3F)nc2n1", "class 0"],
  ["CC(COc1ccc(Oc2ccccc2)cc1)Oc1ccccn1 (centres undefined)", "class 0"],
  ["S=C1NCCN1", "class 0"],
  ["CSC1=N[C@@](C)(c2ccccc2)C(=O)N1Nc1ccccc1", "class 0"],
  ["CON=C(C(=O)OC)c1ccccc1CON=C(C)c1cccc(C(F)(F)F)c1", "class 1"],
  ["CN(C)C(=O)Nc1cccc(C(F)(F)F)c1", "class 0"]
]}
